Origin of the recorded values: paper PMC5540273

# Tested on: TNK1;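 further: KINOMEscan kinase panel screen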
# measurementConditions: concentration: 1 μM, replicates: in singlicate; n = 1
Listing: %Inh of selected compounds
attributeMeasured: %Inh

> print(dat)
                                   compound  measurement
1  Cc1c(Cn2c(C)nn3c(=O)cc(N4CCOC(C)C4)nc23)cccc1C(F)(F)F (stereo not drawn)           9%
2  CN1c2ccc(CNc3ccc(F)cc3)cc2-c2c(cnn2C)S1(=O)=O          12%
3  O=C(NCCNc1ccnc(Nc2ccc(F)cc2)n1)c1cc2ccccc2s1           0%
4  O=C(NOCC1CC1)c1ccc(F)c(F)c1Nc1ccc(I)cc1Cl          26%
5  CCc1ccnc(/C=C/c2n[nH]c3cc(Sc4ccccc4C(=O)NC)ccc23)c1          48%
6                        CNc1ncnc2[nH]ncc12           0%
7  CCc1nc(-c2cccc(C)c2)c(-c2ccnc(NCc3ccccc3)c2)s1           0%
8  O=C(Nc1cccc(-c2nn3ncccc3c2-c2ccnc(Nc3cccc(C(F)(F)F)c3)n2)c1)c1c(F)cccc1F        90.5%
9                  CC(C)(C)n1cnc2c(N)ncnc21          16%
